# Protocol: Human HepG2 cell viability assay in 384 well format
# Type: toxicity, cell-based
# Design: dose 125 nL, time 70.5 hour; concentration not given beside the values
# Reported conditions: HepG2 cells, read-out: Inhibition
The compounds listed here are annotated with their cytotoxicity at 70.5 h.
The reply should be a number in %, with the unit left off.

compound=O=C(NCCNC(=O)C1CC1)c1sccc1Br readout="cytotoxicity at 70.5 h" quantitative_result=-6.03
compound="CC(C(=O)NCc1ccnc(N2CCN(C)CC2)c1)n1cccn1 (stereo unspecified)" readout="cytotoxicity at 70.5 h" quantitative_result=-5.91
compound=c1cnc(NCc2noc3c2CN(C2CCOCC2)CC3)nc1 readout="cytotoxicity at 70.5 h" quantitative_result=-10.6
compound="CCOc1ncccc1CNC(=O)NCC(O)c1ccccc1OC (stereo unspecified)" readout="cytotoxicity at 70.5 h" quantitative_result=-1.39

The compound listed as Cn1cc(CN2CC[C@H]3O[C@H](C(=O)NCc4ccco4)CC[C@H]32)cn1 shows cytotoxicity at 70.5 h equal to -12.4

The compound listed as CCC(C(=O)NCCc1coc(-c2ccc(C)cc2)n1)N(C)C (stereo unspecified) shows cytotoxicity at 70.5 h equal to 3.11

---

The compounds listed here are annotated with their cytotoxicity at 70.5 h.
# Protocol: Human HepG2 cell viability assay in 384 well format
# Assay type: toxicity, cell-based
# Design: dose 125 nL, time 70.5 hour; concentration not given beside the values
# Reported conditions: HepG2 cells, read-out: Inhibition
Just the number plus its unit, please.

Some compounds with recorded cytotoxicity at 70.5 h:
compound=Cn1cc(C(=O)N2CCN(c3ccccc3)CC2)ccc1=O readout="cytotoxicity at 70.5 h" result=-6.86%
compound="COCCCN(C)C1CCCN(Cc2noc(C)n2)C1 (configuration not stated)" readout="cytotoxicity at 70.5 h" result=6.68%

The compound listed as Cc1nc(C(=O)N2CCC(Nc3cccnn3)CC2)cs1 shows cytotoxicity at 70.5 h equal to 28.6%

The compound listed as COc1ccccc1N1CCC(CNCc2cccc(OC)c2OC)C1 (configuration not stated) shows cytotoxicity at 70.5 h equal to 13.4%

---

The compounds listed here are annotated with their cytotoxicity at 70.5 h.
# Protocol: Human HepG2 cell viability assay in 384 well format
# Type: toxicity, cell-based
# Parameters: dose 125 nL, time 70.5 hour; concentration not given beside the values
# Reported conditions: HepG2 cells, read-out: Inhibition
The reply should be a number in %, with the unit left off.

compound=Cc1cc(NCCc2c[nH]cn2)nc(-c2cccnc2)n1 quantitative_result=-6.06

The compound listed as O=C(Cn1ccc2c(Cl)cccc21)N1CCCC1 shows cytotoxicity at 70.5 h equal to -1.08

The compound listed as Cc1nc2ccccc2c(=O)n1CCC(=O)N1CCSCC1 shows cytotoxicity at 70.5 h equal to -4.52

The compound listed as COc1cccc(C(C(=O)O)N(C)Cc2ccc(C)o2)c1 (configuration not stated) shows cytotoxicity at 70.5 h equal to -0.112

The compound listed as c1cnn(C2CN(CCCOc3ccc4c(c3)OCO4)C2)c1 shows cytotoxicity at 70.5 h equal to 11.1

The compound listed as CC(C)=CCCC1(C)C=Cc2c(cc(C)n(CCC(=O)O)c2=O)O1 (configuration not stated) shows cytotoxicity at 70.5 h equal to 4.03

The compound listed as Fc1cccnc1N1CCC2(CNCCC2(F)F)C1 (configuration not stated) shows cytotoxicity at 70.5 h equal to 12.5

The compound listed as COc1ccc(C(C#N)NC(=O)CC2=CCCCC2)c(OC)c1 (configuration not stated) shows cytotoxicity at 70.5 h equal to -3.57

The compound listed as CC(=O)Nc1ccc2nc(CN(C)Cc3snnc3C)ccc2c1 shows cytotoxicity at 70.5 h equal to -9.42

The compound listed as CCc1ccc(NC(=O)N2C[C@H]3CC[C@@]4(N=C(C)N(C)C4=O)[C@H]3C2)cc1 shows cytotoxicity at 70.5 h equal to 44.3

The compound listed as CC(CN1CCOCC1)NC(=O)NCc1cccs1 (configuration not stated) shows cytotoxicity at 70.5 h equal to -7.69

The compound listed as Cc1cc(C2CCCN(C(=O)CCc3cscn3)C2)n[nH]1 (configuration not stated) shows cytotoxicity at 70.5 h equal to -19.6
